Would you mind telling me the reported Cmax of each entry?
Test: Cmax in CD-1 mouse at 10 mg/kg, po
Type: ADME, organism-based
Details: in vivo
Give just the numeric value; ng/mL need not be written.

Answer with the recorded Cmax of CN(C(=O)c1cc2cc(F)c(F)cc2[nH]1)[C@@H]1COCc2[nH]c(=O)c3cc(F)c(F)cc3c21 only.
2140

Look up and state reported Cmax for CN(C(=O)c1cc2cc(F)c(F)c(F)c2[nH]1)[C@@H]1COCc2[nH]c(=O)c3cc(F)c(F)cc3c21
1080

Entry CN(C(=O)Nc1ccc(F)c(Cl)c1)[C@@H]1COCc2[nH]c(=O)c3cc(F)c(F)cc3c21 needs its Cmax filled in; supply it.
690

Return Cmax (reported value) for this compound: CN(C(=O)Nc1ccc(F)c(C(F)F)c1)[C@@H]1COCc2[nH]c(=O)c3cc(F)c(F)cc3c21
2340

For CN(C(=O)Nc1ccc(F)c(C#N)c1)[C@@H]1COCc2[nH]c(=O)c3cc(F)c(F)cc3c21 , write its Cmax.
720

Entry source: ChEMBL document CHEMBL5614459
